tested on: Escherichia coli TOP10; test: shrunken log2 fold change of peptide-encoding DNA abundance (4.5 h post-induction vs induction); higher = less antimicrobial activity (less host growth inhibition); details: time post-induction: 4.5 h; library: site-saturation at positions 5, 18, 19, 20
Record Satisfied whenever shrunken log2 fold change is at -0.04 or higher; record Not satisfied when lower.

# example entries with known answers
RRIRTRPPRLPRPRPRPCCPPRP ... Not satisfied
RRIRKRPPRLPRPRPRPQWHPRP ... Satisfied
RRIRNRPPRLPRPRPRPRRLPRP ... Satisfied
RRIRERPPRLPRPRPRPSHVPRP ... Not satisfied
RRIRGRPPRLPRPRPRPSLSPRP ... Satisfied

Then there is this sequence:
Check if shrunken log2 fold change >= -0.04 (inclusive). Item: "RRIRDRPPRLPRPRPRPCWDPRP"
Satisfied

* * *

system: Escherichia coli TOP10; test: shrunken log2 fold change of peptide-encoding DNA abundance (4.5 h post-induction vs induction); higher = less antimicrobial activity (less host growth inhibition); conditions: time post-induction: 4.5 h; library: site-saturation at positions 5, 18, 19, 20
Listing of recorded shrunken log2 fold change by entry.
API note: the answer field is a bare number with no unit suffix.

RRIRVRPPRLPRPRPRPNVLPRP ... 0.0178

Give shrunken log2 fold change for "RRIRRRPPRLPRPRPRPAAWPRP" tested on Escherichia coli TOP10.
0.0944

Tell me shrunken log2 fold change of "RRIRNRPPRLPRPRPRPFSTPRP" when tested on Escherichia coli TOP10.
-0.226

Provide shrunken log2 fold change, tested on Escherichia coli TOP10, for "RRIRTRPPRLPRPRPRPTELPRP" .
-0.0329

Specify the recorded shrunken log2 fold change for "RRIRRRPPRLPRPRPRPNFKPRP" , system: Escherichia coli TOP10.
0.092

Find shrunken log2 fold change for "RRIRSRPPRLPRPRPRPSVGPRP" on Escherichia coli TOP10 and write it down.
0.0671

* * *

tested on: Escherichia coli TOP10; experiment: shrunken log2 fold change of peptide-encoding DNA abundance (4.5 h post-induction vs induction); higher = less antimicrobial activity (less host growth inhibition); conditions: time post-induction: 4.5 h; library: site-saturation at positions 5, 18, 19, 20
measure_name: shrunken log2 fold change
Simply state the number, no unit and no words.

Solved cases below.
RRIRARPPRLPRPRPRPFSQPRP ... -0.0436
RRIRTRPPRLPRPRPRPGRVPRP ... 0.744
RRIRDRPPRLPRPRPRPEQWPRP ... -0.0491
RRIRRRPPRLPRPRPRPDFAPRP ... 0.39
RRIRYRPPRLPRPRPRPFTQPRP ... -0.646
RRIRQRPPRLPRPRPRPFQWPRP ... 0.0154

Output shrunken log2 fold change of "RRIRSRPPRLPRPRPRPNVSPRP"
-0.0656

Dear colleague, please send me the reported shrunken log2 fold change for "RRIRKRPPRLPRPRPRPLTIPRP" when you can.
0.146

Give me measured shrunken log2 fold change, please, for this sequence: "RRIRPRPPRLPRPRPRPRPSPRP"
0.333

* * *

tested on: Escherichia coli TOP10; assay: shrunken log2 fold change of peptide-encoding DNA abundance (4.5 h post-induction vs induction); higher = less antimicrobial activity (less host growth inhibition); conditions: time post-induction: 4.5 h; library: site-saturation at positions 5, 18, 19, 20
Decide by shrunken log2 fold change: equal to or exceeding -0.2 means t, less means f.

Some solved cases for reference:
RRIRIRPPRLPRPRPRPLEIPRP ... t
RRIRPRPPRLPRPRPRPWFHPRP ... t
RRIRHRPPRLPRPRPRPRPTPRP ... t
RRIRKRPPRLPRPRPRPFTMPRP ... f
RRIRERPPRLPRPRPRPGLCPRP ... t

Check this sequence for shrunken log2 fold change at or above -0.2: "RRIRERPPRLPRPRPRPDTDPRP"
t

Quick check, shrunken log2 fold change >= -0.2? "RRIRQRPPRLPRPRPRPCGLPRP"
t

Is the recorded value of shrunken log2 fold change equal to or greater than -0.2 for this sequence? "RRIRYRPPRLPRPRPRPMWIPRP"
f

* * *

system: Escherichia coli TOP10; test: shrunken log2 fold change of peptide-encoding DNA abundance (4.5 h post-induction vs induction); higher = less antimicrobial activity (less host growth inhibition); conditions: time post-induction: 4.5 h; library: site-saturation at positions 5, 18, 19, 20
measure_name: shrunken log2 fold change
Keep it simple and answer with nothing but the number.

Examples with answers:
RRIRGRPPRLPRPRPRPHGMPRP ... 0.0949
RRIRIRPPRLPRPRPRPQPIPRP ... -0.00642
RRIRGRPPRLPRPRPRPCPMPRP ... 1.17
RRIRPRPPRLPRPRPRPLWKPRP ... 0.0546
RRIRQRPPRLPRPRPRPCVTPRP ... -0.141

Output reported shrunken log2 fold change of the sequence "RRIRARPPRLPRPRPRPTVHPRP" on Escherichia coli TOP10.
2.45

Enter recorded shrunken log2 fold change with Escherichia coli TOP10 for "RRIRQRPPRLPRPRPRPSSVPRP" here.
0.00784

Please indicate recorded shrunken log2 fold change of "RRIRMRPPRLPRPRPRPMVIPRP" measured with Escherichia coli TOP10.
-0.0665

* * *

test system: Escherichia coli TOP10; assay: shrunken log2 fold change of peptide-encoding DNA abundance (4.5 h post-induction vs induction); higher = less antimicrobial activity (less host growth inhibition); conditions: time post-induction: 4.5 h; library: site-saturation at positions 5, 18, 19, 20
measure_name: shrunken log2 fold change

Known results for sequences:
RRIRERPPRLPRPRPRPTVFPRP ... 0.0505
RRIRERPPRLPRPRPRPSLRPRP ... -0.313

Return value of shrunken log2 fold change for input "RRIRQRPPRLPRPRPRPMAAPRP" , no commentary.
0.127

Identify measured shrunken log2 fold change associated with "RRIRMRPPRLPRPRPRPWVIPRP"
0.0191

Consider the sequence "RRIRMRPPRLPRPRPRPYHLPRP" . State its measured shrunken log2 fold change.
0.00229

Quickly give me recorded shrunken log2 fold change for "RRIRHRPPRLPRPRPRPSNGPRP"
-0.605

State its shrunken log2 fold change: "RRIRNRPPRLPRPRPRPRRDPRP"
-0.0239

Name the recorded shrunken log2 fold change of the item "RRIRSRPPRLPRPRPRPQMNPRP" in your answer.
-0.227

Please supply the value of reported shrunken log2 fold change for the item "RRIRNRPPRLPRPRPRPEDPPRP"
0.00956

Look up and state reported shrunken log2 fold change for "RRIRQRPPRLPRPRPRPAVSPRP"
-0.0348

// fetch shrunken log2 fold change given entry "RRIRSRPPRLPRPRPRPPKYPRP"
-0.164

* * *

test system: Escherichia coli TOP10; assay: shrunken log2 fold change of peptide-encoding DNA abundance (4.5 h post-induction vs induction); higher = less antimicrobial activity (less host growth inhibition); settings: time post-induction: 4.5 h; library: site-saturation at positions 5, 18, 19, 20
Quick reference: shrunken log2 fold change of the listed items.

Consider the worked cases shown below.
RRIRTRPPRLPRPRPRPYKCPRP ... -0.372
RRIRTRPPRLPRPRPRPTALPRP ... 0.0207
RRIRYRPPRLPRPRPRPIKHPRP ... -0.693
RRIRPRPPRLPRPRPRPNSIPRP ... -0.254
RRIRPRPPRLPRPRPRPRTQPRP ... 0.223
RRIRARPPRLPRPRPRPTYFPRP ... 0.161

Note shrunken log2 fold change for the sequence shown: "RRIRGRPPRLPRPRPRPMPNPRP"
-0.0294

Complete the entry with shrunken log2 fold change for "RRIRSRPPRLPRPRPRPDPTPRP"
0.035

* * *

The following sequences are shown together with reported shrunken log2 fold change values.
system: Escherichia coli TOP10; assay: shrunken log2 fold change of peptide-encoding DNA abundance (4.5 h post-induction vs induction); higher = less antimicrobial activity (less host growth inhibition); details: time post-induction: 4.5 h; library: site-saturation at positions 5, 18, 19, 20
Lab note: jot down the number only; don't add units.

RRIRWRPPRLPRPRPRPHTNPRP ... -0.283
RRIRIRPPRLPRPRPRPASRPRP ... -0.106
RRIRNRPPRLPRPRPRPHYSPRP ... -0.363
RRIRDRPPRLPRPRPRPFVWPRP ... 0.525
RRIRRRPPRLPRPRPRPSLTPRP ... -0.0192

Now for a further sequence.
For the sequence "RRIRCRPPRLPRPRPRPTENPRP" , report shrunken log2 fold change.
0.0623

* * *

Listing of entries alongside the reported shrunken log2 fold change.
tested on: Escherichia coli TOP10; experiment: shrunken log2 fold change of peptide-encoding DNA abundance (4.5 h post-induction vs induction); higher = less antimicrobial activity (less host growth inhibition); conditions: time post-induction: 4.5 h; library: site-saturation at positions 5, 18, 19, 20;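 note: peptides expressed intracellularly from a pBAD plasmid library in pooled LB shake-flask culture, induced with 0.3% L-arabinose, DNA abundance read by NGS, three biological replicates, DESeq2 with apeglm shrinkage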
Form: value (number only, do not type unit).

Illustrative cases are given below, each with its answer.
RRIRLRPPRLPRPRPRPIWGPRP ... 0.112
RRIRPRPPRLPRPRPRPTVAPRP ... 0.277
RRIRFRPPRLPRPRPRPVFVPRP ... -0.277
RRIRERPPRLPRPRPRPPSKPRP ... -0.197
RRIRCRPPRLPRPRPRPKKRPRP ... 0.156

Identify measured shrunken log2 fold change corresponding to "RRIRWRPPRLPRPRPRPGNFPRP"
-0.149

Annotate the sequence "RRIRKRPPRLPRPRPRPYAIPRP" with its measured shrunken log2 fold change.
0.0303

Fill in shrunken log2 fold change for record "RRIRNRPPRLPRPRPRPYMCPRP"
-0.18

Using the record for "RRIRNRPPRLPRPRPRPGHHPRP" , state its measured shrunken log2 fold change.
-0.00875
